Target: 5-Lipoxygenase (Rattus norvegicus, UniProt P12527)
Construct: The broken cell extract was then centrifuged at 10,000×g for 20 minutes (min) and the supernatant centrifuge at 100,000×g for 60 min; host or cells: RBL-1 cells, high speed (100,000×g) supernatant
Sequence (P12527 1-673): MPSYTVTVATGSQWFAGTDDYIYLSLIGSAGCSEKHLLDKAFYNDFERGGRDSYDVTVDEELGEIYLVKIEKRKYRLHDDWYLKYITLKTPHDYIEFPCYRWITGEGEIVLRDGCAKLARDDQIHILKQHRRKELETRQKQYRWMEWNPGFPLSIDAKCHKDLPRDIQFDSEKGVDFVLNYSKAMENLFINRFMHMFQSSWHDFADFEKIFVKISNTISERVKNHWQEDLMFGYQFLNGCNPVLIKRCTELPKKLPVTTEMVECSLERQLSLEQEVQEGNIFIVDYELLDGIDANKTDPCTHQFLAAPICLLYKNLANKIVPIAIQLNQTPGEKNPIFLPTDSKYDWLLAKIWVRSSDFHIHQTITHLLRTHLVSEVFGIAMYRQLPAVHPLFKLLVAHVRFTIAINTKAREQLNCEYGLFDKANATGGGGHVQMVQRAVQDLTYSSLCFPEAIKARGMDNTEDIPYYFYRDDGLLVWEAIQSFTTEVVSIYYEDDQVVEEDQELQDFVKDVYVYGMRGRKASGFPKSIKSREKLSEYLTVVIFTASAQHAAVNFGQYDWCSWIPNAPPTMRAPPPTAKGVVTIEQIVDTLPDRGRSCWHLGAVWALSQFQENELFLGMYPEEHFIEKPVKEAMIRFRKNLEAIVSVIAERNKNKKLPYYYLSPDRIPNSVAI
Assay: Assay of 5-lipoxygenase activity in RBL-1 cell extract (high speed supernatant)
Assay type: biochemical
Settings: 5HETE production by RBL1 high speed supernatant; 25 μM arachidonic acid, 5 min at 37° C.; read-out: 5-HETE IC50

{"test smiles": "O=C(CSc1nc(-c2ccc(F)cc2)c(-c2ccncc2)[nH]1)CSc1nc(-c2ccc(F)cc2)c(-c2ccncc2)[nH]1", "scale unit": "µM", "IC50": 1.7}
{"test smiles": "Fc1ccc(-c2nc(SCCSc3nc(-c4ccc(F)cc4)c(-c4ccc(F)cc4)[nH]3)[nH]c2-c2ccc(F)cc2)cc1", "scale unit": "µM", "IC50": 18.5}
{"test smiles": "O=C(CSc1nc(-c2ccc(F)cc2)c(-c2ccc(F)cc2)[nH]1)CSc1nc(-c2ccc(F)cc2)c(-c2ccc(F)cc2)[nH]1", "scale unit": "µM", "IC50": 5.3}

---

molecular target: 5-Lipoxygenase (Rattus norvegicus, UniProt P12527); construct: The broken cell extract was then centrifuged at 10,000×g for 20 minutes (min) and the supernatant centrifuge at 100,000×g for 60 min; host or cells: RBL-1 cells, high speed (100,000×g) supernatant; test: Assay of 5-lipoxygenase activity in RBL-1 cell extract (high speed supernatant); format: biochemical; conditions: LTB4 production by RBL1 high speed supernatant; 25 μM arachidonic acid, 5 min at 37° C.; read-out: LTB4 IC50

{"test smiles": "Fc1ccc(-c2nc(SCCSc3nc(-c4ccc(F)cc4)c(-c4ccc(F)cc4)[nH]3)[nH]c2-c2ccc(F)cc2)cc1", "IC50 / µM": 3.3}
{"test smiles": "O=C(CSc1nc(-c2ccc(F)cc2)c(-c2ccc(F)cc2)[nH]1)CSc1nc(-c2ccc(F)cc2)c(-c2ccc(F)cc2)[nH]1", "IC50 / µM": 1.6}
{"test smiles": "O=C(CSc1nc(-c2ccc(F)cc2)c(-c2ccncc2)[nH]1)CSc1nc(-c2ccc(F)cc2)c(-c2ccncc2)[nH]1", "IC50 / µM": 0.65}
